Provide the recorded TGI for the entries that follow.
Tested on: COLO 205 colon
Experiment: NCI tumour cell line growth inhibition, 48 h
Give bare numbers, in µM.

| smilesCode | unitAbbrev | TGI |
| --- | --- | --- |
| CCCCCCCCCCN=C(c1ccc(N(C)C)cc1)c1ccc(N(C)C)cc1 | µM | 15.7 |

The record that follows has no TGI shown yet.
Qu. TGI for "Cc1cc2c(Br)cc(Br)c(O)c2nc1C(=O)c1ccccc1" ?
Ans. 55.7

* * *

Provide the recorded TGI for the entries that follow.
Test system: SW-620 colon
Assay: NCI tumour cell line growth inhibition, 48 h

| compound | measuredEndpoint | assayValue |
| --- | --- | --- |
| CCOC1Oc2ccccc2-c2oc(=O)c(Sc3ccc(C)cc3)cc21 (stereo unspecified) | TGI | > 100 µM |
| CCCCC1c2c([nH]c3ccccc23)C2C(=O)N(c3ccc(OC)cc3)C(=O)C2C1CCC (stereo unspecified) | TGI | > 10 µM |
| Cc1cc2c(Br)cc(Br)c(O)c2nc1C(=O)c1ccccc1 | TGI | > 100 µM |
| N#CC(C#N)=CNC(=S)c1ccncc1 | TGI | > 100 µM |
| c1ccc2nc3c(cc4ccccn43)nc2c1 | TGI | > 100 µM |

// for each compound below, give its TGI
1. CC(C)/C(Cl)=N\OC(=O)Nc1ccc(C#N)cc1
2. CC1(C)N=C(N)N=C(N)N1c1ccc(OCC(=O)Nc2ccccc2)c(Cl)c1
3. Cc1csc(-c2cn(C)c3c2C(=O)C(N)=CC3=O)n1
4. O=c1ncccn1C1C=C(CO)C(O)C1O (stereo unspecified)
5. CC1=C(C(=O)Nc2ccccc2C)C(/C=C/c2ccccc2)C(C(=O)Nc2ccccc2C)=C(C)N1
6. C=CCSc1nc2ccccc2c(=O)n1Cc1ccco1

Ans.
3.36 µM
> 100 µM
> 100 µM
> 50 µM
> 100 µM
> 100 µM

* * *

Target or system U251 CNS: recorded GI50 listed per item.

The cases that follow already have their GI50 on record.
| compound | GI50 |
| --- | --- |
| CCSc1nc(N)c2cn[nH]c2n1 | 43.1 µM |
| O=C(/C=C/c1ccccc1)CC(c1ccccc1)N1CCOCC1 (configuration not stated) | 2.44 µM |
| COc1ccccc1/C=C/C(=O)/C=C/c1ccccc1O | 0.326 µM |
| NC(=O)c1cccc(Nc2nccc(Nc3cccc(F)c3)n2)c1 | 14.3 µM |
| CCCCCCCCCCCCCCCCCCNC(=O)[C@H]1CSC(c2cccs2)N1 (some centres not stated) | 0.929 µM |
| C=C1CC2(OC1=O)C(=O)N(CCCN1C(=O)C3(CC(=C)C(=O)O3)c3ccccc31)c1ccccc12 (configuration not stated) | 5.45 µM |
| CC(=O)[CH-]C(C)=O.[CH2-]C.[CH2-]C.[Tl+3] | > 100 µM |
| O=S1(=O)NCCCN1CCNc1nccc(-c2c(-c3cccc(O)c3)nc3sccn23)n1 | 21.6 µM |
| CCN(CC)CCNC(=O)c1cn2ncnc(Oc3ccc(NC(=O)Nc4ccc(Cl)c(C(F)(F)F)c4)c(F)c3)c2c1C | 1.59 µM |
| COc1ccccc1-c1cc(=O)c2ccc(C)nc2[nH]1 | > 100 µM |

// for each compound below, give its GI50
1. OC(CN1CC1)C(O)CN1CC1 (configuration not stated)
2. Cc1cc(Nc2nc(SCc3ccc(C(=O)Nc4ccc(F)cc4N)cc3)nn3cccc23)n[nH]1
3. COc1cc2c(cc1-c1c(C)noc1C)cc(C)c(=O)n2Cc1ccccn1
4. CC(=O)[O-].CC(=O)[O-].CC(=O)[O-].CC(=O)[O-].[Mo+2].[Mo+2]
5. c1ccc2nc3c(cc4ccccn43)nc2c1
6. COc1cc([N+](=O)[O-])c(OC)cc1-c1nc2sc(Cl)cn2c1/C=N/Nc1ccccn1
7. Cn1cc(-c2csc(-c3cn(C)c4ccccc34)n2)c2cnccc21

Ans.
1. > 50 µg/mL
2. 0.343 µM
3. 4.43 µM
4. > 100 µM
5. 39.9 µM
6. 7.65 µM
7. 1.86 µM
